System: A549
Test: Cytotoxicity against human A549 cells at 10 uM after 96 hrs by MTT assay
Type: functional, cell-based
The source made the active and inactive calls. No cut-off for these calls is given here.
measurement-kind: Activity

CC(C)=C[C@H]1C[C@](O)([C@H]2CC[C@]3(C)[C@@H]2CC[C@@H]2[C@@]4(C)CC[C@H](O[C@@H]5OC[C@H](O)[C@H](O[C@@H]6OC[C@@H](O)[C@H](O)[C@H]6O)[C@H]5O[C@@H]5O[C@@H](C)[C@H](O)[C@@H](O)[C@H]5O)C(C)(C)[C@@H]4CC[C@]23C)C(=O)O1	inactive
CC(C)=CCC[C@@](O)(CO[C@@H]1O[C@H](CO[C@@H]2O[C@H](CO)[C@@H](O)[C@H](O)[C@H]2O)[C@@H](O)[C@H](O)[C@H]1O)[C@H]1CC[C@]2(C)[C@@H]1CC[C@@H]1[C@@]3(C)CC[C@H](O[C@@H]4O[C@H](CO)[C@@H](O)[C@H](O[C@@H]5OC[C@@H](O)[C@H](O)[C@H]5O)[C@H]4O[C@@H]4O[C@@H](C)[C@H](O)[C@@H](O)[C@H]4O)C(C)(C)[C@@H]3CC[C@]12C	inactive
CC(=O)OC[C@H]1O[C@@H](O[C@H]2CC[C@]3(C)[C@H]4CC[C@@H]5[C@@H]([C@](O)(CO)CCC=C(C)C)CC[C@@]5(C)[C@]4(C)CC[C@H]3C2(C)C)[C@H](O[C@@H]2O[C@@H](C)[C@H](O)[C@@H](O)[C@H]2O)[C@@H](O[C@@H]2OC[C@@H](O)[C@H](O)[C@H]2O)[C@@H]1O	inactive
CC(C)=CCC[C@@](O)(CO[C@@H]1O[C@H](CO)[C@@H](O)[C@H](O)[C@H]1O)[C@H]1CC[C@]2(C)[C@@H]1CC[C@@H]1[C@@]3(C)CC[C@H](O[C@@H]4OC[C@H](O)[C@H](O[C@@H]5OC[C@@H](O)[C@H](O)[C@H]5O)[C@H]4O[C@@H]4O[C@@H](C)[C@H](O)[C@@H](O)[C@H]4O)C(C)(C)[C@@H]3CC[C@]12C	inactive

The compound listed as CC(C)=C[C@@H]1C[C@](O)([C@H]2CC[C@]3(C)[C@@H]2CC[C@@H]2[C@@]4(C)CC[C@H](O[C@@H]5OC[C@H](O)[C@H](O[C@@H]6OC[C@@H](O)[C@H](O)[C@H]6O)[C@H]5O[C@@H]5O[C@@H](C)[C@H](O)[C@@H](O)[C@H]5O)C(C)(C)[C@@H]4CC[C@]23C)C(=O)O1 shows Activity equal to inactive

The compound listed as CC(C)=C[C@@H]1C[C@](O)([C@H]2CC[C@]3(C)[C@@H]2CC[C@@H]2[C@@]4(C)CC[C@H](O[C@@H]5O[C@H](CO)[C@@H](O)[C@H](O[C@@H]6OC[C@@H](O)[C@H](O)[C@H]6O)[C@H]5O)C(C)(C)[C@@H]4CC[C@]23C)C(=O)O1 shows Activity equal to inactive

The compound listed as CC(C)=CCC[C@@](O)(CO)[C@H]1CC[C@]2(C)[C@@H]1CC[C@@H]1[C@@]3(C=O)CC[C@H](O[C@@H]4OC[C@H](O)[C@H](O[C@@H]5OC[C@@H](O)[C@H](O)[C@H]5O)[C@H]4O)C(C)(C)[C@@H]3CC[C@]12C shows Activity equal to inactive

The compound listed as CC(C)=CCC[C@@](O)(CO)[C@H]1CC[C@]2(C)[C@@H]1CC[C@@H]1[C@@]3(C)CC[C@H](O[C@@H]4OC[C@H](O)[C@H](O[C@@H]5OC[C@@H](O)[C@H](O)[C@H]5O)[C@H]4O[C@@H]4O[C@@H](C)[C@H](O)[C@@H](O)[C@H]4O)C(C)(C)[C@@H]3CC[C@]12C shows Activity equal to inactive

The compound listed as CC(C)=CCC[C@@](O)(CO[C@@H]1O[C@H](CO)[C@@H](O)[C@H](O)[C@H]1O)[C@H]1CC[C@]2(C)[C@@H]1CC[C@@H]1[C@@]3(C=O)CC[C@H](O[C@@H]4O[C@H](CO)[C@@H](O)[C@H](O[C@@H]5OC[C@@H](O)[C@H](O)[C@H]5O)[C@H]4O[C@@H]4O[C@@H](C)[C@H](O)[C@@H](O)[C@H]4O)C(C)(C)[C@@H]3CC[C@]12C shows Activity equal to inactive

Taken from ChEMBL document CHEMBL2069292.
